Reference source: ChEMBL document CHEMBL1201861

pIC50 by entry:
Test system: Ca9-22
Assay Comment: cells
Assay type: functional, cell-based
Experimental Parameters: Homo sapiens
Description: SANGER: Inhibition of human Ca9-22 cell growth in a cell viability assay.
pIC50: −log10 of the molar value.

The following compounds have reported results that may help.
1. NC(=O)c1ccc(N(C(N)=O)c2c(F)cccc2F)nc1-c1ccc(F)cc1F :: < 5.70
2. CC1(C)CCC(c2ccc(Cl)cc2)=C(CN2CCN(c3ccc(C(=O)NS(=O)(=O)c4ccc(N[C@H](CCN5CCOCC5)CSc5ccccc5)c(S(=O)(=O)C(F)(F)F)c4)cc3)CC2)C1 :: < 5.70

Switching to the query record.
Exercise: Write down the reported pIC50 of "O=C1NC(=O)c2c1c(-c1ccccc1Cl)cc1[nH]c3ccc(O)cc3c21" , test system: Ca9-22.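 Note: growth inhibition of Ca9-22 cells, read out with a cell viability assay.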
Solution: < 5.70

====

Test system: EOL1;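 note: growth inhibition of EoL-1 cells, read out by a cell viability assay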
Assay Comment: cells
Type: functional, cell-based, Homo sapiens
Experimental Parameters: Homo sapiens, EOL1
Description: SANGER: Inhibition of human EoL-1-cell cell growth in a cell viability assay.
Quantity Measured: IC50

1) Cc1ccc(C(=O)Nc2ccc(CN3CCN(C)CC3)c(C(F)(F)F)c2)cc1C#Cc1cnc2cccnn12 [PONATINIB] :: < 2 nM

Exercise: Any idea what its IC50 is? The molecule is "COc1ccc(N(C(=O)Oc2c(C)cccc2C)c2ccnc(Nc3ccc(N4CCN(C)CC4)cc3)n2)c(OC)c1"
Solution: < 20 nM

Exercise: Please do the same for "O=S(=O)(O)c1ccc2cc(/N=N/c3cc(S(=O)(=O)O)c4cccnc4c3O)ccc2c1" as well.
Solution: > 16000 nM

====

IC50 by entry:
Test system: COR-L88
Assay Comment: cells
Format: functional, cell-based, Homo sapiens
Experimental Parameters: Homo sapiens, COR-L88
Description: SANGER: Inhibition of human COR-L88 cell growth in a cell viability assay.

1. COC(=O)[C@H](CCSC)NC(=O)c1ccc(NC[C@@H](N)CS)cc1-c1ccccc1 :: > 1020 nM

Exercise: Any idea what its IC50 is? The compound is Cc1ccc(NC(=O)c2ccc(CN3CCN(C)CC3)cc2)cc1Nc1nccc(-c2cccnc2)n1 [IMATINIB]
Solution: > 2000 nM

Exercise: Please do the same for NC1(c2ccc(-c3nc4ccn5c(=O)[nH]nc5c4cc3-c3ccccc3)cc2)CCC1 [MK-2206] as well.
Solution: > 4000 nM

Exercise: Please do the same for "Cc1cc(N2CCOCC2)cc2[nH]c(-c3c(NC[C@@H](O)c4cccc(Cl)c4)cc[nH]c3=O)nc12" as well.
Solution: > 5120 nM

Exercise: Please do the same for COc1cc(N2CCC(N3CCN(C)CC3)CC2)ccc1Nc1ncc(Cl)c(Nc2ccccc2S(=O)(=O)C(C)C)n1 [TAE-684] as well.
Solution: > 2000 nM

Exercise: Please do the same for "O=S(=O)(O)c1ccc2cc(/N=N/c3cc(S(=O)(=O)O)c4cccnc4c3O)ccc2c1" as well.
Solution: > 16000 nM

Exercise: Please do the same for CN(NC(=O)CC(=O)NN(C)C(=S)c1ccccc1)C(=S)c1ccccc1 [ELESCLOMOL] as well.
Solution: > 200 nM

====

IC50 by entry:
Test system: HOP-62;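 note: cell growth inhibition determined with a viability assay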
Assay Comment: cells
Format: functional, cell-based, Homo sapiens
Experimental Parameters: Homo sapiens, HOP-62
Description: SANGER: Inhibition of human HOP-62 cell growth in a cell viability assay.

The following compounds have reported results that may help.
1) C[C@@H](Oc1cc(-c2cnn(C3CCNCC3)c2)cnc1N)c1c(Cl)ccc(F)c1Cl :: > 2 µM
2) O=S(=O)(O)c1ccc2cc(/N=N/c3cc(S(=O)(=O)O)c4cccnc4c3O)ccc2c1 :: > 16 µM

Switching to the query record.
Exercise: Any idea what its IC50 is? The compound is "Cc1ccc(-n2nc(C(C)(C)C)cc2NC(=O)Nc2ccc(OCCN3CCOCC3)c3ccccc23)cc1"
Solution: > 10 µM

====

System: BB30-HNC
Assay Comment: cells
Type: functional, cell-based, Homo sapiens
Experimental Parameters: Homo sapiens, BB30-HNC
Description: SANGER: Inhibition of human BB30-HNC cell growth in a cell viability assay.
pIC50: −log10 of the molar value.
pIC50 by entry:

The following compounds have reported results that may help.
1) CC1(C)CCC(c2ccc(Cl)cc2)=C(CN2CCN(c3ccc(C(=O)NS(=O)(=O)c4ccc(N[C@H](CCN5CCOCC5)CSc5ccccc5)c(S(=O)(=O)C(F)(F)F)c4)cc3)CC2)C1 :: < 5.70
2) C[C@@H](Oc1cc(-c2cnn(C3CCNCC3)c2)cnc1N)c1c(Cl)ccc(F)c1Cl :: < 5.70
3) Cc1ccc(NC(=O)c2ccc(CN3CCN(C)CC3)cc2)cc1Nc1nccc(-c2cccnc2)n1 :: < 5.70

Exercise: Any idea what its pIC50 is? The compound is "O=C(NCCCNc1nc(Nc2cccc(NC(=O)N3CCCC3)c2)ncc1I)c1cccs1"
Solution: < 5.30

Exercise: Please do the same for "CN(C)CCOc1ccc(-c2nc(-c3ccncc3)c(-c3ccc4c(c3)CC/C4=N\O)[nH]2)cc1" as well.
Solution: < 5.30

====

pIC50 by entry:
Tested on: MHH-PREB-1
Assay Comment: cells
Assay type: functional, cell-based, Homo sapiens
Experimental Parameters: Homo sapiens, MHH-PREB-1
Description: SANGER: Inhibition of human MHH-PREB-1 cell growth in a cell viability assay.
pIC50: −log10 of the molar value.

The following compounds have reported results that may help.
1. CN(C)CCOc1ccc(-c2nc(-c3ccncc3)c(-c3ccc4c(c3)CC/C4=N\O)[nH]2)cc1 :: < 5.30
2. C[C@@H](Oc1cc(-c2cnn(C3CCNCC3)c2)cnc1N)c1c(Cl)ccc(F)c1Cl :: < 5.70

Exercise: Write down the reported pIC50 of "NC(=O)c1cccc(-c2cc(Nc3ccc(OC(F)(F)F)cc3)ncn2)c1" , test system: MHH-PREB-1.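 Note: cell viability assay measuring inhibition of proliferation of human MHH-PREB-1 cells.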
Solution: < 5.89

====

Tested on: K5
Assay Comment: cells
Type: functional, cell-based, Homo sapiens
Experimental Parameters: Homo sapiens, K5
Description: SANGER: Inhibition of human K5 cell growth in a cell viability assay.
IC50 by entry:

1) Cc1ccc(NC(=O)c2ccc(CN3CCN(C)CC3)cc2)cc1Nc1nccc(-c2cccnc2)n1 :: > 2000 nM
2) COc1ccc(-c2cc3nccn3c(Nc3ncccc3C(N)=O)n2)cc1OC :: 2930 nM
3) OC[C@H](Cc1ccccc1)Nc1nc(Oc2ccc3c(c2)CCC3)nc2c1ncn2Cc1ccc(-c2ccccc2)cc1 :: > 10200 nM
4) O=C(NCCCNc1nc(Nc2cccc(NC(=O)N3CCCC3)c2)ncc1I)c1cccs1 :: > 5000 nM
5) C[C@@H](Oc1cc(-c2cnn(C3CCNCC3)c2)cnc1N)c1c(Cl)ccc(F)c1Cl :: > 2000 nM

Switching to the query record.
Exercise: Any idea what its IC50 is? The compound is "NC(=O)c1ccc(N(C(N)=O)c2c(F)cccc2F)nc1-c1ccc(F)cc1F"
Solution: 229 nM

====

System: NCI-H1694;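 note: cell viability assay measuring inhibition of growth in human NCI-H1694 cells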
Assay Comment: cells
Type: functional, cell-based, Homo sapiens
Experimental Parameters: Homo sapiens, NCI-H1694
Description: SANGER: Inhibition of human NCI-H1694 cell growth in a cell viability assay.
IC50 by entry:

The following compounds have reported results that may help.
1) CCCCCCCCCCCC1=C(O)C(=O)C=C(O)C1=O :: > 32 µM
2) Nc1ccccc1NC(=O)c1ccc(CNC(=O)OCc2cccnc2)cc1 :: 4.13 µM
3) COc1ccc(N(C(=O)Oc2c(C)cccc2C)c2ccnc(Nc3ccc(N4CCN(C)CC4)cc3)n2)c(OC)c1 :: > 5.12 µM

Exercise: Any idea what its IC50 is? The compound is "Cc1ccc(C(=O)Nc2ccc(CN3CCN(C)CC3)c(C(F)(F)F)c2)cc1C#Cc1cnc2cccnn12"
Solution: > 0.512 µM

Exercise: Please do the same for "CC(C)C[C@H](NC(=O)[C@H](Cc1ccccc1)NC(=O)c1cnccn1)B(O)O" as well.
Solution: 0.00758 µM

Exercise: Please do the same for "C[C@@H](Oc1cc(-c2cnn(C3CCNCC3)c2)cnc1N)c1c(Cl)ccc(F)c1Cl" as well.
Solution: > 2 µM

====

IC50 by entry:
System: ES6
Assay Comment: cells
Assay type: functional, cell-based
Experimental Parameters: Homo sapiens
Description: SANGER: Inhibition of human ES6 cell growth in a cell viability assay.

The following compounds have reported results that may help.
1) CN(NC(=O)CC(=O)NN(C)C(=S)c1ccccc1)C(=S)c1ccccc1 [ELESCLOMOL] :: 40 nM
2) Cc1ccc(C(=O)Nc2ccc(CN3CCN(C)CC3)c(C(F)(F)F)c2)cc1C#Cc1cnc2cccnn12 [PONATINIB] :: > 512 nM
3) CCCCCCCCCCCC1=C(O)C(=O)C=C(O)C1=O [EMBELIN] :: 9550 nM
4) CS(=O)(=O)N1CCN(Cc2cc3nc(-c4cccc5[nH]ncc45)nc(N4CCOCC4)c3s2)CC1 [PICTILISIB] :: > 4000 nM
5) Cc1ccc(NC(=O)c2ccc(CN3CCN(C)CC3)cc2)cc1Nc1nccc(-c2cccnc2)n1 [IMATINIB] :: > 2000 nM

Exercise: Any idea what its IC50 is? The compound is NC(=O)c1ccc(N(C(N)=O)c2c(F)cccc2F)nc1-c1ccc(F)cc1F [VX-702]
Solution: > 2000 nM

====

pIC50 by entry:
Test system: 697
Assay Comment: cells
Type: functional, cell-based, Homo sapiens
Experimental Parameters: Homo sapiens
Description: SANGER: Inhibition of human 697 cell growth in a cell viability assay.
pIC50: −log10 of the molar value.

The following molecules have reported results that may help.
1) Cc1ccc(-n2nc(C(C)(C)C)cc2NC(=O)Nc2ccc(OCCN3CCOCC3)c3ccccc23)cc1 [DORAMAPIMOD] :: < 5.00
2) COC(=O)[C@H](CCSC)NC(=O)c1ccc(NC[C@@H](N)CS)cc1-c1ccccc1 :: < 5.99

Switching to the query record.
Exercise: Any idea what its pIC50 is? The molecule is C=CC(=O)N1CCCC(Nc2nc(Nc3ccc(N(C)C(=O)CC)cc3)nc3[nH]cnc23)C1 (stereo not drawn)
Solution: < 4.99
